Parameter viability, T/C: see the listing below.
Tested on: 889142-216-R-J1-PDC complex spheroid viability;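 note: spheroids exposed to compounds for seven days; 100% = DMSO vehicle control viability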
Assay: Anticancer human tumor 889142-216-R-J1-PDC patient-derived bladder carcinoma cell line growth inhibition [POLQ]
Conditions: second compound 3.16 µM; first compound 0.0316 µM; active compounds read low
# number only, unit % dropped from output

- Molecule: "CCCS(=O)(=O)Nc1ccc(F)c(C(=O)c2c[nH]c3ncc(-c4ccc(Cl)cc4)cc23)c1F + Nc1ccc(C#CCN(C(=O)Cc2ncc(C(F)(F)F)cc2C(F)(F)F)c2ccc(F)cc2)nn1"
  Target Desc: "889142-216-R-J1-PDC complex spheroid viability"
  viability, T/C, %: 93.7
- Molecule: "C=CC(=O)N1CCN(c2nc(=O)n(-c3c(C)ccnc3C(C)C)c3nc(-c4c(O)cccc4F)c(F)cc23)C(C)C1 (centres undefined) + Cc1cccc(N(C)C(=O)C2C(O)CCN2c2nc(C)cc(C(F)(F)F)c2C#N)c1"
  Target Desc: "889142-216-R-J1-PDC complex spheroid viability"
  viability, T/C, %: 98.5
- Molecule: "Cn1ncnc1[C@H]1c2n[nH]c(=O)c3cc(F)cc(c23)N[C@@H]1c1ccc(F)cc1 + Cc1cccc(N(C)C(=O)C2C(O)CCN2c2nc(C)cc(C(F)(F)F)c2C#N)c1"
  Target Desc: "889142-216-R-J1-PDC complex spheroid viability"
  viability, T/C, %: 75.5
- Molecule: "CC1COCCN1c1cc(-c2ccnn2C)c2ccnc(-c3ccn[nH]3)c2n1 (centres undefined) + Nc1ccc(C#CCN(C(=O)Cc2ncc(C(F)(F)F)cc2C(F)(F)F)c2ccc(F)cc2)nn1"
  Target Desc: "889142-216-R-J1-PDC complex spheroid viability"
  viability, T/C, %: 62.9
- Molecule: "CNCc1ccc(-c2[nH]c3cc(F)cc4c3c2CCNC4=O)cc1 + Nc1ccc(C#CCN(C(=O)Cc2ncc(C(F)(F)F)cc2C(F)(F)F)c2ccc(F)cc2)nn1"
  Target Desc: "889142-216-R-J1-PDC complex spheroid viability"
  viability, T/C, %: 116

# value of viability, T/C, 889142-216-R-J1-PDC complex spheroid viability, item CC1COCCN1c1cc(C2(S(C)(=N)=O)CC2)nc(-c2ccnc3[nH]ccc23)n1 (centres undefined) + Nc1ccc(C#CCN(C(=O)Cc2ncc(C(F)(F)F)cc2C(F)(F)F)c2ccc(F)cc2)nn1 = 81.7

# value of viability, T/C, 889142-216-R-J1-PDC complex spheroid viability, item Nc1ccn(C2OC(CO)C(O)C2(F)F)c(=O)n1 (centres undefined) + COC1C(OC(N)=O)C(O)C(Oc2ccc3c(O)c(NC(=O)c4ccc(O)c(CC=C(C)C)c4)c(=O)oc3c2C)OC1(C)C = 64.5

# value of viability, T/C, 889142-216-R-J1-PDC complex spheroid viability, item O=C(c1cc(Cc2n[nH]c(=O)c3ccccc23)ccc1F)N1CCN(C(=O)C2CC2)CC1 + Cc1cccc(N(C)C(=O)C2C(O)CCN2c2nc(C)cc(C(F)(F)F)c2C#N)c1 = 91.3

# value of viability, T/C, 889142-216-R-J1-PDC complex spheroid viability, item C#Cc1c(F)ccc2cc(O)cc(-c3ncc4c(N5CC6CCC(C5)N6)nc(OCC56CCCN5CC(F)C6)nc4c3F)c12 (centres undefined) + Nc1ccc(C#CCN(C(=O)Cc2ncc(C(F)(F)F)cc2C(F)(F)F)c2ccc(F)cc2)nn1 = 94
